In this section, each of the binders is paired with its reported log10 of IC50, huKv1.3 current, QPatch patch clamp.
Target: human Kv1.3 (human) (UniProt P22001)
Sequence (P22001 whole entry): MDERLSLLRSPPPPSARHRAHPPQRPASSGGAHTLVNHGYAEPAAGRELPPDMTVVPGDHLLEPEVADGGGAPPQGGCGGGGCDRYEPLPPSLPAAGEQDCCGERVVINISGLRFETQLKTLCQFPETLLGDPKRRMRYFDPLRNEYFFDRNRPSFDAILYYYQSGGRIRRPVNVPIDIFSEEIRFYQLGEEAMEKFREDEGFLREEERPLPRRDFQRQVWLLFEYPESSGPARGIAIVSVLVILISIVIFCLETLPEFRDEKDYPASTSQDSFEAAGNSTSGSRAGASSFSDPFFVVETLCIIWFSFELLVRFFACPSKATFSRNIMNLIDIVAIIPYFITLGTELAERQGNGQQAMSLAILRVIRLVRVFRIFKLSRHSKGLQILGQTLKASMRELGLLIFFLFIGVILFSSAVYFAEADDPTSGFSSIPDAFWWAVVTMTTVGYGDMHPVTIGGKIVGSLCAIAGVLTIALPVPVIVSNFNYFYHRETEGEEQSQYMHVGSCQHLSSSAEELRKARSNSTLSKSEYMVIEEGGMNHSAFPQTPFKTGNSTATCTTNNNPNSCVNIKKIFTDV
Assay: cell-based or functional assay
Heads up, the numbers here are log10 of IC50, huKv1.3 current, QPatch patch clamp in nM units.

Answered cases to consult:
KB_A12_HsTx1 (antibody, V domains shown) VH: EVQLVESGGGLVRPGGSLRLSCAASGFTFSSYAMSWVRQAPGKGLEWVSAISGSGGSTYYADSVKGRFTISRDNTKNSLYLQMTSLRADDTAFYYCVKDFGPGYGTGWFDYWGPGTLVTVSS VL: NWYQQLPGKAPKLLIYAAGRASCRTPKDCADPCRKETGCPYGKCMNRKCKCNRCANSGVSDRFSAAKSGTSASLAINGLRSEDEADYYCAAWDDSLNGYVFGTGTKLTVLG : 0.59
KB_A07_HsTx1 (antibody, V domains shown) VH: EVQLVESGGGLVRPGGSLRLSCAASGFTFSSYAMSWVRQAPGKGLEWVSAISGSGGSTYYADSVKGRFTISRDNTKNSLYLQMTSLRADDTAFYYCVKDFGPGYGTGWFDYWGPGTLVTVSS VL: NWYQQKPGKAPKLLIYAAGVASCRTPKDCADPCRKETGCPYGKCMNRKCKCNRCSRSGVPSRFSGSGSGTDFTLTISSLQPEDFATYYCQQGASPPYTFGQGTKVEIKR : 0.67
KB_A12_KTX (antibody) VH: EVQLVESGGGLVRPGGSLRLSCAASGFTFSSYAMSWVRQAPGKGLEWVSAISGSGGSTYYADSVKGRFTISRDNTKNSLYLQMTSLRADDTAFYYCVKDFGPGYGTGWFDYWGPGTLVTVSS VL: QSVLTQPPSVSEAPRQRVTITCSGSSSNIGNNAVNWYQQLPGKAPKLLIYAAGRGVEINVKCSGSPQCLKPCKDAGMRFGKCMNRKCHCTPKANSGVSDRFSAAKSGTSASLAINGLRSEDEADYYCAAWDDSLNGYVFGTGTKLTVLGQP : 2.63
KB_A12_Odk2 short (antibody, V domains shown) VH: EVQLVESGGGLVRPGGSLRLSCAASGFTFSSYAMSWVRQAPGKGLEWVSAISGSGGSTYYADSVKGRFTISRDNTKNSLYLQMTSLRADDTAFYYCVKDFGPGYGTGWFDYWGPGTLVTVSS VL: NWYQQLPGKAPKLLIYAAGRVKCRGSPQCIQPCKDAGMRFGKCMNGKCHCTPKANSGVSDRFSAAKSGTSASLAINGLRSEDEADYYCAAWDDSLNGYVFGTGTKLTVLG : 1.81

Then this binder:
## Task Please report log10 of IC50, huKv1.3 current, QPatch patch clamp for the following binder: KB_A12_Odk2 (antibody, V domains shown) VH: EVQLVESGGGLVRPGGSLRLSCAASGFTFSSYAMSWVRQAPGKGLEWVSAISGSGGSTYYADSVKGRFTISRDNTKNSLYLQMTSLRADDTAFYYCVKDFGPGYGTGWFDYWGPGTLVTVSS VL: QSVLTQPPSVSEAPRQRVTITCSGSSSNIGNNAVNWYQQLPGKAPKLLIYAAGRGVPTDVKCRGSPQCIQPCKDAGMRFGKCMNGKCHCTPKANSGVSDRFSAAKSGTSASLAINGLRSEDEADYYCAAWDDSLNGYVFGTGTKLTVLG
## Result 2.35
